Data provenance is patent US6498138B1.

Tested on: Normal human fibroblasts
Assay: Contraction of collagen lattices by human fibroblasts
Format: cell-based
Details: 10 μg/ml peptide, 1×10^5 fibroblasts/well, Day 4 of culture
Ends that are not written are not given here.
Property: Diameter of Lattice, Day 4; scope: individual substances
Number in cm, nothing else.

GRVYIHPF [Gly1 AII] = 1.5
Asp-Arg-Val-Tyr-Ile-His-Pro-Phe (DRVYIHPF) [AII, known pressor agent, commercially available, reference compound] = 1.4
DRVYIHPI [Ile8 AII] = 1.4

Which Diameter of Lattice, Day 4 is listed for Asp-Arg-Val-Tyr-Ile-His-Pro (DRVYIHP) [AII(1-7)] ?
1.7

Which Diameter of Lattice, Day 4 is listed for RVYAHPF [Ala4-AIII] ?
1.6
